Measured values drawn from ChEMBL document CHEMBL3421608 for this set.

testSystem: Cyclin-dependent kinase 2 (Homo sapiens, UniProt P24941)
test: Inhibition of human recombinant full length C-terminal His6-tagged CDK2 expressed in baculovirus infected Sf21 insect cells using fluorescence substrate after 60 mins by caliper off-chip incubation mobility shift assay
quantityName: pIC50
Value format note: pIC50 is -log10 of concentration (mol/L); just state the number.

Ask: For the molecule O=C(NC1CCCC1)c1ccc(-c2nccc(-c3c[nH]c4cnccc34)n2)cc1 , give its measured pIC50 value.
Result: 4.34

Ask: For the molecule CS(=O)(=O)c1ccc(-c2nccc(-c3c[nH]c4cnccc34)n2)cc1 , give its measured pIC50 value.
Result: 4.77

Ask: For the molecule Cc1nccc(-c2c[nH]c3cnccc23)n1 , give its measured pIC50 value.
Result: 4.42

Ask: For the molecule COc1cc(N2CCN(C)CC2)ccc1Nc1nccc(-c2c[nH]c3c(C)nccc23)n1 , give its measured pIC50 value.
Result: 4.76

Ask: For the molecule COc1cc(N2CCN(C)CC2)ccc1Nc1cc(-c2c[nH]c3cnccc23)ncn1 , give its measured pIC50 value.
Result: 4.91

###

For each entry below, report its IC50 value.
testSystem: Dual specificity tyrosine-phosphorylation-regulated kinase 1B (Homo sapiens, UniProt Q9Y463)
Sequence (Q9Y463 whole entry): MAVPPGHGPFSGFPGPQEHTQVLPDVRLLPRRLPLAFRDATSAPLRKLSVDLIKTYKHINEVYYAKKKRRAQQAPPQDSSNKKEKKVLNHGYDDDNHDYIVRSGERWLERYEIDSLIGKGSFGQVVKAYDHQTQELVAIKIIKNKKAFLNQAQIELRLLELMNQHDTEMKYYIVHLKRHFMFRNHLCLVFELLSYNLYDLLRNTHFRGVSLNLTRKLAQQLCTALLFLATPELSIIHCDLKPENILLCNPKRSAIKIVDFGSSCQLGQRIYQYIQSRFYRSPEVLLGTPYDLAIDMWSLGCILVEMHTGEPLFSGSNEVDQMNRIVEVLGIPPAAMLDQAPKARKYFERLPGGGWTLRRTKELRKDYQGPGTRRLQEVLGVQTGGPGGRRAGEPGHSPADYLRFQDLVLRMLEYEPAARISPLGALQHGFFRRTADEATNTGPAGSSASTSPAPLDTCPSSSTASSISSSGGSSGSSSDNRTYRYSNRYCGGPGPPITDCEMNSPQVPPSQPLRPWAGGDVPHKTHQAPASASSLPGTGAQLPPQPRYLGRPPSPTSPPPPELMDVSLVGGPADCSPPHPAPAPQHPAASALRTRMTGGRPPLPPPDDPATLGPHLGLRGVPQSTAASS
test: Inhibition of human full length C-terminal c-Myc tagged Dyrk1B phosphorylation overexpressed in monkey COS1 cells after 5 hrs by ELISA
Format: cell-based, COS-1
# output: bare number, implied unit µM

Ask: For the compound C(=C\c1nccc(-c2c[nH]c3cnccc23)n1)/c1ccccc1 , give its measured IC50 value.
Result: 0.192

Ask: For the compound Cc1nccc2c(-c3ccnc(-c4ccc(S(C)(=O)=O)cc4)n3)c[nH]c12 , give its measured IC50 value.
Result: 2.12

Ask: For the compound CN1CCN(c2ccc(Nc3cc(-c4c[nH]c5ccccc45)ncn3)cc2)CC1 , give its measured IC50 value.
Result: 9.96

Ask: For the compound Cc1nccc(-c2c[nH]c3cnccc23)n1 , give its measured IC50 value.
Result: 3.07

Ask: For the compound COc1cc(N2CCN(C)CC2)ccc1Nc1cc(-c2c[nH]c3cnccc23)ncn1 , give its measured IC50 value.
Result: 0.282

Ask: For the compound CS(=O)(=O)c1ccc(-c2nccc(-c3c[nH]c4cnccc34)n2)cc1 , give its measured IC50 value.
Result: 0.898

Ask: For the compound COc1cc(N2CCN(C)CC2)ccc1Nc1nccc(-c2c[nH]c3cnccc23)n1 , give its measured IC50 value.
Result: 0.085

Ask: For the compound COc1cc(N2CCN(C)CC2)ccc1Nc1nccc(-c2c[nH]c3c(C)nccc23)n1 , give its measured IC50 value.
Result: 0.083

Ask: For the compound CN1CCN(c2ccc(Nc3cc(-c4c[nH]c5cnccc45)ncn3)cc2)CC1 , give its measured IC50 value.
Result: 0.453

Ask: For the compound Cc1nccc(-c2cn(Cc3ccccc3)c3cnccc23)n1 , give its measured IC50 value.
Result: 0.194

Ask: For the compound Cn1cc(-c2ccnc(-c3ccc(S(C)(=O)=O)cc3)n2)c2ccncc21 , give its measured IC50 value.
Result: 0.81

Ask: For the compound c1cc2c(-c3ccnc4[nH]ccc34)c[nH]c2cn1 , give its measured IC50 value.
Result: 0.378

Ask: For the compound COc1cc(N2CCN(C)CC2)ccc1Nc1nccc(-c2cn(C)c3c(C)nccc23)n1 , give its measured IC50 value.
Result: 0.168
